# target-desc: Human AMPK α2β2γ1 (Homo sapiens, UniProt O43741+P54619+P54646)
# Construct: The full length cDNAs of human AMPK β2 (NM_005399.3) and human AMPK α2 (NM_006252.3); The full length cDNAs of human AMPK β2 (NM_005399.3); the full length cDNA of human AMPK γ1 (NM_002733.3); 6xHis (N); made in house; host or cells: Escherichia coli BL21 CodonPlus (DE3)-RIL (AMPK); BL21 Star (DE3) (CaMKK2)
# Sequence (P54646 whole entry): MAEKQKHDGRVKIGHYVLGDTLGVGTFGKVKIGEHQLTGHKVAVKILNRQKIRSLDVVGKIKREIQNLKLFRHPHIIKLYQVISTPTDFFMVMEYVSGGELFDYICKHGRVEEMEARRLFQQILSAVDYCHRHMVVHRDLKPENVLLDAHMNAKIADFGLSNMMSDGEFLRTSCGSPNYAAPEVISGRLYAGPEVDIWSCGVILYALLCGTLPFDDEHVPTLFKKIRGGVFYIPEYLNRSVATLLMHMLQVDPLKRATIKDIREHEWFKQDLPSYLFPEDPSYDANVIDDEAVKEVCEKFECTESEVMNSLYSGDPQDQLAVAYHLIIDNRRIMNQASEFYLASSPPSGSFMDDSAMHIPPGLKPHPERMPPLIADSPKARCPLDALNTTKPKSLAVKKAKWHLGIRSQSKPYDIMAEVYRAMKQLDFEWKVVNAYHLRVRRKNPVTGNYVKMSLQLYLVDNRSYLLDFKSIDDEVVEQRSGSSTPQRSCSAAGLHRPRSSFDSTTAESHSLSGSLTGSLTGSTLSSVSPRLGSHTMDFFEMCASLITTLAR
# Sequence (O43741 whole entry): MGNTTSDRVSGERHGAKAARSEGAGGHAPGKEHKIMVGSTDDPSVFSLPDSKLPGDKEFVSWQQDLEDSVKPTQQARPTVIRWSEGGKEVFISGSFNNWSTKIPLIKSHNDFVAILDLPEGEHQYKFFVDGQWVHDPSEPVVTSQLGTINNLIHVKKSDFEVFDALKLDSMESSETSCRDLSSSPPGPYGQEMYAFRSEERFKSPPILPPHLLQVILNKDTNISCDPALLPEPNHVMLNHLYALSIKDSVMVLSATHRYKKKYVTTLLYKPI
# Sequence (P54619 whole entry): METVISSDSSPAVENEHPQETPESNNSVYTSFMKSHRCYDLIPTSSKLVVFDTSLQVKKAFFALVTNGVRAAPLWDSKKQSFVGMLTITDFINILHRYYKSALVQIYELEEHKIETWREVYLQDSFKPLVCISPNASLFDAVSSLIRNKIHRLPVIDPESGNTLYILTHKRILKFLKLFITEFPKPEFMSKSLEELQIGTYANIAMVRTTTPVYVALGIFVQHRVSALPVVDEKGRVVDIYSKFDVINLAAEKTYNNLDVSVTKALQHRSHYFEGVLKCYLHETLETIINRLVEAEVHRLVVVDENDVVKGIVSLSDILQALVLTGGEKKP
# assay-details: Test Example 2: AMPK activator evaluation, mobility-shift kinase assay after CaMKK2 phosphorylation
# Type: biochemical
# measurement-conditions: compound concentration showing 150% relative to the control (100%)
Below, each entry is listed with its recorded EC150.
Provide the reading as a plain figure in nM.

Look over these answered cases.
CCOCCOc1cc(F)c2c(c1)CCC2Nc1nc2nc(O[C@@H]3CO[C@H]4[C@@H]3OC[C@H]4O)[nH]c2cc1Cl (stereo partly drawn) [Compound I-2-223] :: 2.8
CS(=O)(=O)NCCOc1cc(F)c(CNc2nc3nc(O[C@@H]4CO[C@H]5[C@@H]4OC[C@H]5O)[nH]c3cc2Cl)c(F)c1 [Compound I-2-93] :: 9.9

Recorded EC150 of COCCOc1cc(F)c(CNc2nc3nc(O[C@@H]4CO[C@H]5[C@@H]4OC[C@H]5O)[nH]c3cc2Cl)c(F)c1 [Compound I-1-13] , please. 17

Recorded EC150 of O[C@@H]1CO[C@H]2[C@@H]1OC[C@H]2Oc1nc2nc(NCc3c(F)cccc3F)c(Cl)cc2[nH]1 [Compound I-1-1] , please. 29

Recorded EC150 of O[C@@H]1CO[C@H]2[C@@H]1OC[C@H]2Oc1nc2nc(NCc3c(F)cccc3F)c(F)cc2[nH]1 [Compound I-1-10] , please. 740

Recorded EC150 of O[C@@H]1CO[C@H]2[C@@H]1OC[C@H]2Oc1nc2nc(NC3CCc4ccccc43)c(Cl)cc2[nH]1 (stereo partly drawn) [Compound I-1-8] , please. 67

====

# target-desc: Human AMPK α2β2γ1 (Homo sapiens, UniProt O43741+P54619+P54646)
# Construct: The full length cDNAs of human AMPK β2 (NM_005399.3) and human AMPK α2 (NM_006252.3); The full length cDNAs of human AMPK β2 (NM_005399.3); the full length cDNA of human AMPK γ1 (NM_002733.3); 6xHis (N); made in house; host or cells: Escherichia coli BL21 CodonPlus (DE3)-RIL (AMPK); BL21 Star (DE3) (CaMKK2)
# assay-details: Test Example 2: AMPK activator evaluation, mobility-shift kinase assay after CaMKK2 phosphorylation
# Assay type: biochemical
# measurement-conditions: compound concentration showing 150% relative to the control (100%)
assay-endpoint: EC150 (nM)
Provide the reading as a plain figure in nM.

Look over these answered cases.
CS(=O)(=O)CCCOc1cc(F)c(CNc2nc3nc(O[C@@H]4CO[C@H]5[C@@H]4OC[C@H]5O)[nH]c3cc2Cl)c(F)c1 :: 5.4
O[C@@H]1CO[C@H]2[C@@H]1OC[C@H]2Oc1nc2nc(NCc3c(F)cccc3F)c(C(F)(F)F)cc2[nH]1 :: 130
O[C@@H]1CO[C@H]2[C@@H]1OC[C@H]2Oc1nc2nc(NCc3c(F)cc(Cl)cc3F)c(Cl)cc2[nH]1 :: 42

Recall the recorded EC150 for OCCn1ccc(CNc2nc3nc(O[C@@H]4CO[C@H]5[C@@H]4OC[C@H]5O)[nH]c3cc2Cl)n1 with Human AMPK α2β2γ1 (Homo sapiens, UniProt O43741+P54619+P54646) and state it. 94

Recall the recorded EC150 for O=C1CCCN1CCOc1cc(F)c(CNc2nc3nc(O[C@@H]4CO[C@H]5[C@@H]4OC[C@H]5O)[nH]c3cc2Cl)c(F)c1 with Human AMPK α2β2γ1 (Homo sapiens, UniProt O43741+P54619+P54646) and state it. 15

Recall the recorded EC150 for O=C(c1cc(F)c2c(c1)CCC2Nc1nc2nc(O[C@@H]3CO[C@H]4[C@@H]3OC[C@H]4O)[nH]c2cc1Cl)N1CCCCC1 (stereo partly drawn) with Human AMPK α2β2γ1 (Homo sapiens, UniProt O43741+P54619+P54646) and state it. 4.5

====

# target-desc: Human AMPK α2β2γ1 (Homo sapiens, UniProt O43741+P54619+P54646)
# Construct: The full length cDNAs of human AMPK β2 (NM_005399.3) and human AMPK α2 (NM_006252.3); The full length cDNAs of human AMPK β2 (NM_005399.3); the full length cDNA of human AMPK γ1 (NM_002733.3); 6xHis (N); made in house; host or cells: Escherichia coli BL21 CodonPlus (DE3)-RIL (AMPK); BL21 Star (DE3) (CaMKK2)
# assay-details: Test Example 2: AMPK activator evaluation, mobility-shift kinase assay after CaMKK2 phosphorylation
# Assay type: biochemical
# measurement-conditions: maximum rate of increase in activity within the measurement range, control = 100%
Each record is given 1 if its reported Emax is strictly below 500%. Records at or above 500% are given 0.

Please review the entries below; each comes with its answer.
O=C(c1cc(F)c2c(c1)CCC2Nc1nc2nc(O[C@@H]3CO[C@H]4[C@@H]3OC[C@H]4O)[nH]c2cc1Cl)N1CCCCC1 (stereo partly shown) :: 0
OCCOc1cc(F)c(CNc2nc3nc(O[C@@H]4CO[C@H]5[C@@H]4OC[C@H]5O)[nH]c3cc2Cl)c(F)c1 :: 0

Dear colleague, could you confirm whether Emax of O[C@@H]1CO[C@H]2[C@@H]1OC[C@H]2Oc1nc2nc(NCc3c(F)cc(C4=CCNCC4)cc3F)c(Cl)cc2[nH]1 falls below 500%? Thanks. 0

Dear colleague, could you confirm whether Emax of O[C@@H]1CO[C@H]2[C@@H]1OC[C@H]2Oc1nc2nc(/C=C/c3ccc(F)cc3F)c(Cl)cc2[nH]1 falls below 500%? Thanks. 0

Dear colleague, could you confirm whether Emax of O[C@@H]1CO[C@H]2[C@@H]1OC[C@H]2Oc1nc2nc(NC3CCc4cccnc43)c(Cl)cc2[nH]1 (stereo partly shown) falls below 500%? Thanks. 1

Dear colleague, could you confirm whether Emax of O[C@@H]1CO[C@H]2[C@@H]1OC[C@H]2Oc1nc2nc(NCc3c(F)cccc3F)c(Cl)cc2[nH]1 falls below 500%? Thanks. 1

Dear colleague, could you confirm whether Emax of O[C@@H]1CO[C@H]2[C@@H]1OC[C@H]2Oc1nc2nc(NCc3c(F)cccc3F)c(F)cc2[nH]1 falls below 500%? Thanks. 1

Dear colleague, could you confirm whether Emax of O[C@@H]1CO[C@H]2[C@@H]1OC[C@H]2Oc1nc2nc(NCc3c(F)cc(-c4cnn(CCN5CCOCC5)c4)cc3F)c(Cl)cc2[nH]1 falls below 500%? Thanks. 0

Dear colleague, could you confirm whether Emax of O=C1CCCN1CCOc1cc(F)c(CNc2nc3nc(O[C@@H]4CO[C@H]5[C@@H]4OC[C@H]5O)[nH]c3cc2Cl)c(F)c1 falls below 500%? Thanks. 0

====

# target-desc: Human AMPK α2β2γ1 (Homo sapiens, UniProt O43741+P54619+P54646)
# Construct: The full length cDNAs of human AMPK β2 (NM_005399.3) and human AMPK α2 (NM_006252.3); The full length cDNAs of human AMPK β2 (NM_005399.3); the full length cDNA of human AMPK γ1 (NM_002733.3); 6xHis (N); made in house; host or cells: Escherichia coli BL21 CodonPlus (DE3)-RIL (AMPK); BL21 Star (DE3) (CaMKK2)
# assay-details: Test Example 2: AMPK activator evaluation, mobility-shift kinase assay after CaMKK2 phosphorylation
# Format: biochemical
# measurement-conditions: compound concentration showing 150% relative to the control (100%)
# Description: The full length cDNAs of human AMPK β2 (NM_005399.3) and human AMPK α2 (NM_006252.3) were inserted into the MCS1 and MCS2 of the pETDuet-1 vector to prepare a human AMPK β2 and human AMPK α2 (6× His tag at the 5′ terminus) expressing plasmid. […] To detect phosphorylated fluorescent substrates, the reaction liquid was applied to a measuring device, LabChip EZ Reader II manufactured by Caliper Life Science, Inc., for detecting fluorescence by using differences in mobility due to differences in charge. […]
Classification field: satisfied = EC150 at or over 20 nM; not satisfied = EC150 under 20 nM.

Please review the entries below; each comes with its answer.
O=C(c1cc(F)c2c(c1)CCC2Nc1nc2nc(O[C@@H]3CO[C@H]4[C@@H]3OC[C@H]4O)[nH]c2cc1Cl)N1CC[C@H](F)C1 (stereo partly drawn) :: not satisfied
COCCOc1cc(F)c(CSc2nc3nc(O[C@@H]4CO[C@H]5[C@@H]4OC[C@H]5O)[nH]c3cc2Cl)c(F)c1 :: satisfied
O[C@@H]1CO[C@H]2[C@@H]1OC[C@H]2Oc1nc2nc(NCc3c(F)cc(OCC4CNCCO4)cc3F)c(Cl)cc2[nH]1 (stereo partly drawn) :: not satisfied

Does EC150 meet or surpass 20 nM for O[C@@H]1CO[C@H]2[C@@H]1OC[C@H]2Oc1nc2nc(NCc3ccccc3F)c(Cl)cc2[nH]1 ? satisfied

Does EC150 meet or surpass 20 nM for O[C@@H]1CO[C@H]2[C@@H]1OC[C@H]2Oc1nc2nc(NCc3c(F)cc(C4=CCNCC4)cc3F)c(Cl)cc2[nH]1 ? satisfied

Does EC150 meet or surpass 20 nM for CC(C)(O)CCc1cc(F)c(CNc2nc3nc(O[C@@H]4CO[C@H]5[C@@H]4OC[C@H]5O)[nH]c3cc2Cl)c(F)c1 ? not satisfied
